# pIC50 values compiled below
Biological target: NLRP3 (Homo sapiens, UniProt Q96P20)
Sequence (Q96P20 whole entry): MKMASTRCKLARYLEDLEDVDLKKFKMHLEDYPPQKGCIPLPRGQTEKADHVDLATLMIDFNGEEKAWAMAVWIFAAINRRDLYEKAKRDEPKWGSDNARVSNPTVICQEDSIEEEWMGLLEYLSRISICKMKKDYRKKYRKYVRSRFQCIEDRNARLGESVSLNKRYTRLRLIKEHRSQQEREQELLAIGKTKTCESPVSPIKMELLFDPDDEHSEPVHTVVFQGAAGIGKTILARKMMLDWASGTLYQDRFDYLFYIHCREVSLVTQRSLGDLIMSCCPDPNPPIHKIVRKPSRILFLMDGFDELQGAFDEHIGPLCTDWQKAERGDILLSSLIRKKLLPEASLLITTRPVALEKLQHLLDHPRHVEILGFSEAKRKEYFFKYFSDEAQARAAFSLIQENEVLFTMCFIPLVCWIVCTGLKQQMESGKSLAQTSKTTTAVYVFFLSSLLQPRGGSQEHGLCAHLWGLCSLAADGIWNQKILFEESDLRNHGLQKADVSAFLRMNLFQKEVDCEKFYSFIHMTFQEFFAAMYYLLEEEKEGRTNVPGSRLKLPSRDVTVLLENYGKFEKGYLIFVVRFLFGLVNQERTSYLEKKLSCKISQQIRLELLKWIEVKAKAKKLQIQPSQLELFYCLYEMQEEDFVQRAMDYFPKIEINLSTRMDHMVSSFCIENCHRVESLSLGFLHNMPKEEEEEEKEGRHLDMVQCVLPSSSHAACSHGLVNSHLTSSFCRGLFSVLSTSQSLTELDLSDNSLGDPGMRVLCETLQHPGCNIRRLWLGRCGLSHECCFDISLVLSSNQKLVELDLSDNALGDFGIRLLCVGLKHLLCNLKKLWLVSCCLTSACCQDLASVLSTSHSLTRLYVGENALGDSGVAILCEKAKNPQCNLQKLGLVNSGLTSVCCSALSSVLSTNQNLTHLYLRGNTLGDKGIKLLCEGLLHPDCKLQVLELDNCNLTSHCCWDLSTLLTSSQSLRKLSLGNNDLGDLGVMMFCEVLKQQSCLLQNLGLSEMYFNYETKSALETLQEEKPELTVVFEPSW
Assay: THP-1 cells pyroptosis assay (LPS + nigericin, resazurin readout)
Format: cell-based
Set-up: Seed THP-1 cells (25,000 cells/well) containing 1.0 μg/ml LPS in 40 μl of RPMI medium; host or cells: THP-1 cells
Conditions: NLRP3 inhibitory activity, 1.0 μg/ml LPS, 5 μM nigericin
Protocol: THP-1 cells (ATCC #TIB-202) were grown in RPMI containing L-glutamine (Gibco #11835) supplemented with 1 mM sodium pyruvate (Sigma #S8636) and penicillin (100 units/ml)/streptomycin (0.1 mg/ml) (Sigma #P4333) in 10% Fetal Bovine Serum (FBS) (Sigma #F0804). […] The cells were then counted and viability (>90%) checked by Trypan blue (Sigma #T8154). […] The following method step-by-step assay was followed for compound screening. • 1. […] Plates were read in an Envision reader at Ex 560 nm and Em 590 nm • 9. […]
pIC50: −log10 of the molar value. Structures can show the parent of a compound that is named as a salt.

[
  {
    "compound": "CN(C)CCn1nc(S(=O)(=O)NC(=O)Nc2c3c(cc4c2CCC4)CCC3)cc1CN(C)C",
    "pIC50": "> 7.40"
  },
  {
    "compound": "CCN(CC)Cc1cc(S(=O)(=O)NC(=O)Nc2c3c(cc4c2CCC4)CCC3)nn1C [Example 82, Sodium Salt]",
    "pIC50": "6.80 to 7.40"
  },
  {
    "compound": "CC(C)c1cc(F)cc(-c2ccnc(C(N)=O)c2)c1NC(=O)NS(=O)(=O)c1cc(CN(C)C)n(C)n1",
    "pIC50": "5.59 to 6.19"
  },
  {
    "compound": "CCn1nc(S(=O)(=O)NC(=O)Nc2c(-c3ccnc(C#N)c3)cc(F)cc2C(C)C)cc1CN(C)C",
    "pIC50": "6.80 to 7.40"
  },
  {
    "compound": "CC(c1cc(S(=O)(=O)NC(=O)Nc2c3c(cc4c2CCC4)CCC3)nn1C1CC1)N1CCC1 (stereo not drawn)",
    "pIC50": "> 7.40"
  }
]

Q: # input compound: CC(C)n1nc(S(=O)(=O)NC(=O)Nc2c3c(cc4c2CCC4)CCC3)cc1CN(C)CC(F)F [Example 56, Sodium Salt] ; wanted: its pIC50
Ans: 6.80 to 7.40

Q: # input compound: `CCN(C)Cc1cc(S(=O)(=O)NC(=O)Nc2c3c(cc4c2CCC4)CCC3)nn1C` ; wanted: its pIC50
Ans: 6.80 to 7.40

Q: # input compound: `CC(C)(C)n1nc(S(=O)(=O)NC(=O)Nc2c3c(cc4c2CCC4)CCC3)cc1CN1CCC1` ; wanted: its pIC50
Ans: 6.80 to 7.40

Q: # input compound: `COc1cc(-c2cc(F)cc(C(C)C)c2NC(=O)NS(=O)(=O)c2cc(CN(C)C)n(C)n2)ccn1` ; wanted: its pIC50
Ans: > 7.40

Q: # input compound: `CCn1nc(S(=O)(=O)NC(=O)Nc2c(-c3ccnc(OC)c3)ccc3c2CCC3)cc1CN(C)C` ; wanted: its pIC50
Ans: > 7.40

Q: # input compound: `CC(C)c1cc(F)cc(-c2ccccc2)c1NC(=O)NS(=O)(=O)c1cc(CN(C)C)n(C(C)C)n1` ; wanted: its pIC50
Ans: 5.59 to 6.19

Q: # input compound: `CN(C)Cc1cc(S(=O)(=O)NC(=O)Nc2c3c(cc4c2CCC4)CCC3)nn1C(C)(C)C` ; wanted: its pIC50
Ans: > 7.40

Q: # input compound: CCC(c1cc(S(=O)(=O)NC(=O)Nc2c3c(cc4c2CCC4)CCC3)nn1C)N(C)C (single isomer, unassigned; enantiomer 2) [Example 72] ; wanted: its pIC50
Ans: > 7.40

Q: # input compound: COCCN(C)Cc1cc(S(=O)(=O)NC(=O)Nc2c(C(C)C)cc(F)cc2C(C)C)nn1C [Example 118, Sodium Salt] ; wanted: its pIC50
Ans: 5.59 to 6.19

Q: # input compound: COCCN(C)Cc1cc(S(=O)(=O)NC(=O)Nc2c3c(cc4c2CCC4)CCC3)nn1C [Example 119, Sodium Salt] ; wanted: its pIC50
Ans: 6.19 to 6.80
